Entries and their TGI values follow.
Test system: K-562 leukemia
Protocol notes: NCI tumour cell line growth inhibition, 48 h

Reference set, count: 2
INSERT INTO results (molecule, outcome_measure, test_result) VALUES
  ('CC([O-])=C1C(=O)c2ccccc2C1=O.CC([O-])=C1C(=O)c2ccccc2C1=O.CC[O-].CC[O-].[Ti+4]', 'TGI', '> 100 µM'),
  ('CC1(C)COC2=C(C1)C(=O)c1ccccc1C2=O', 'TGI', '1.52 µM');

Memo: `N/C1=C/C(=O)NC(=O)c2c(c3ccccc3oc2=O)C1` , reported TGI: > 100 µM

Memo: `COc1ccc(CCN2CCC(CN(C)Cc3cnn(-c4ccccc4)c3)CC2)cc1` , reported TGI: 10.9 µM

Memo: `CC(C)=CC[C@]12CCN(C)[C@H]1N(S(=O)(=O)c1ccccc1)c1ccccc12` , reported TGI: > 100 µM

---

System: SW-620 colon
Protocol notes: NCI tumour cell line growth inhibition, 48 h
Outcome measure: TGI (µM)
Write the number in µM without appending the unit.

Reference set, count: 5
INSERT INTO results (compound, unit_info, test_result) VALUES
  ('C=C1C(=O)OC2CC(C)C3C4OC4C(O)C3(C)C(O)C12 (stereo unspecified)', 'µM', 54.6),
  ('CC1(C)COC2=C(C1)C(=O)c1ccccc1C2=O', 'µM', 4.03),
  ('COC(=O)C(C(=O)OC)C(Br)C(Br)C(Br)c1ccccc1 (stereo unspecified)', 'µM', 11.4),
  ('CN(CCc1ccccn1)C(=S)N/N=C(\c1ccccc1)c1ccccn1', 'µM', 20.2),
  ('CC(C)c1ccccc1SCc1cc(=O)cc(CSc2ccccc2C(C)C)o1', 'µM', 81.2);

Memo: `CC1=C(C)CC2(C=C(C(C)(C)C)C(=O)C(C(C)(C)C)=C2)SC1` , reported TGI: 41.1

---

Entries and their TGI values follow.
System: MALME-3M melanoma
Protocol notes: NCI tumour cell line growth inhibition, 48 h
Write the number in µM without appending the unit.

INSERT INTO results (compound, measurement_target, outcome_measure, test_result) VALUES
  ('C#CCN(Cc1ccc2nc(-c3ccccc3)c(N)nc2c1)c1cc(OC)c(OC)c(OC)c1', 'MALME-3M melanoma', 'TGI', 83.3);

// next item, TGI requested
// TGI (MALME-3M melanoma) for CC(=O)NC(C=O)C(O[C@H](C)C(=O)NC(C)C(=O)NC(CCC(N)=O)C(=O)OCc1ccccc1)C(O)C(O)COC(=O)CCNc1c2ccccc2nc2cccc([N+](=O)[O-])c12 (some centres undefined) = 4.67

---

Entries and their TGI values follow.
System: HCT-15 colon
Protocol notes: NCI tumour cell line growth inhibition, 48 h
Write the number in µM without appending the unit.

Reference set, count: 3
INSERT INTO measurements (compound, test_result) VALUES
  ('CCC(C)C(=O)OCC(=O)c1ccc(-c2ccccc2)cc1 (centres undefined)', 43.3),
  ('CC1OC(OC2C(O[C@H]3CC[C@@]4(C)C(=CC[C@H]5[C@@H]6C[C@@H]7O[C@]8(CC[C@@H](C)CO8)[C@@H](C)[C@@H]7[C@@]6(C)CC[C@@H]54)C3)OC(CO)C(O)C2O)C(O)C(O)C1O (some centres undefined)', 5.21),
  ('Cc1ccc(-n2nnnc2-c2cnc(N3CCOCC3)nc2-c2cccc(C(F)(F)F)c2)cc1', 8.57);

// next item, TGI requested
Memo: CC(=O)NC(C=O)C(O[C@H](C)C(=O)NC(C)C(=O)NC(CCC(N)=O)C(=O)OCc1ccccc1)C(O)C(O)COC(=O)CCNc1c2ccccc2nc2cccc([N+](=O)[O-])c12 (some centres undefined) , reported TGI: 30

---

Tested on: OVCAR-3 ovarian
Protocol notes: NCI tumour cell line growth inhibition, 48 h
Entries and their TGI values follow.
Write the number in µM without appending the unit.

Reference set, count: 5
INSERT INTO assay_data (compound, test_result) VALUES
  ('CC12CCC(CC1)C(C)(C)O2', 84.8),
  ('COc1cc(C)c2sc3ccccc3c(=O)c2c1NCCN(C)C', 23.9),
  ('CC(=O)c1ccc(NC(=O)COC(=O)c2cccc3c(=O)c4ccccc4[nH]c23)cc1', 69.4),
  ('Cc1cc(O)c(C2=NN(c3ccc(S(N)(=O)=O)cc3)C(/C=C/c3ccccc3)C2)cc1Cl (stereo not given)', 28.4),
  ('COc1cc(Cl)cc(-c2nn(-c3cccc(NC(=O)Nc4ccc(Cl)c(Cl)c4)c3)cc2-c2ccncc2)c1', 29.4);

Memo: Cc1cccc(N2C(=O)C3c4[nH]c5ccc(C)cc5c4C4CCC(C(C)(C)C)CC4C3C2=O)c1 (stereo not given) , reported TGI: 28.9

Memo: CC1(C)Cc2c(Br)c(Br)c(Br)c(OCC(O)CN3CCN(c4ccccn4)CC3)c2O1 (stereo not given) , reported TGI: 23.4

Memo: `CN(CCC(=O)/C(=C\c1ccccc1)c1ccc(Cl)cc1)Cc1ccccc1` , reported TGI: 5.04

---

System: EKVX NSCLC
Protocol notes: NCI tumour cell line growth inhibition, 48 h; in the data active = GI50 below about 0.43 µM; inactive = the rest
Field 'call' accepts active, inactive

Solved cases (4 shown):
INSERT INTO results (compound, category) VALUES
  ('NC(=O)c1sc(-n2cnc3cc(C(F)(F)F)ccc32)cc1OCc1ccccc1Br', 'inactive'),
  ('COc1cc2c(c(OC)c1OC)-c1ccc(N=NC(N)=S)c(=O)cc1[C@@H](NC(C)=O)CC2', 'inactive'),
  ('Cc1cccc2c3c(sc12)C(c1ccc(F)cc1)C(C#N)=C(N)O3 (stereo not given)', 'active'),
  ('CC(=O)/C=C/c1ccc(OCc2ccc(Cl)cc2)cc1', 'inactive');

Here is the next item to consider.
Look up the recorded call for Cc1cc(O)c(C2=NN(c3ccc(S(N)(=O)=O)cc3)C(/C=C/c3ccccc3)C2)cc1Cl (stereo not given) in this test.
inactive

---

Entries and their TGI values follow.
Tested on: MDA-MB-435
Protocol notes: NCI tumour cell line growth inhibition, 48 h
Write the number in µM without appending the unit.

Reference set, count: 3
INSERT INTO results (molecule, outcome_measure, unit_info, test_result) VALUES
  ('CC1=CP(=O)(c2c(C(C)C)cc(C(C)C)cc2C(C)C)CCC1Cl (centres undefined)', 'TGI', 'µM', 37.6),
  ('O=[N+]([O-])c1cc2no[n+]([O-])c2cc1N1CCCCC1', 'TGI', 'µM', 9.44),
  ('CC(=O)Nc1n[n+]([O-])c2cc(C)ccc2[n+]1[O-]', 'TGI', 'µM', 20.8);

// next item, TGI requested
Memo: O=C1CSC(c2ccc(Cl)cc2Cl)N1c1ccc(Oc2ccc(Cl)cc2)c(Cl)c1 (centres undefined) , reported TGI: 26.3

---

Tested on: RPMI-8226 leukemia
Protocol notes: NCI tumour cell line growth inhibition, 48 h; in the data active = GI50 below about 0.43 µM; inactive = the rest
Field 'call' accepts true = active, false = inactive

Solved cases (2 shown):
INSERT INTO results (compound, category) VALUES
  ('CN(CCCCCl)P(=O)(OCc1ccc([N+](=O)[O-])o1)OCC1OC(n2cnc([N+](=O)[O-])c2N)C(O)C1O (stereo not drawn)', 'false'),
  ('Cn1cc(C2=C(Nc3ccccc3)C(=O)NC2=O)c2ccccc21', 'false');

Look up the recorded call for `Cl.Fc1c[c-]c(-c2ccccn2)c(F)c1.[Pt].c1ccc([PH+](C[PH+](c2ccccc2)c2ccccc2)c2ccccc2)cc1` in this test.
true

---

Entries and their GI50 values follow.
Tested on: SW-620 colon
Protocol notes: NCI tumour cell line growth inhibition, 48 h

Reference set, count: 6
INSERT INTO assay_data (molecule, outcome_measure, test_result) VALUES
  ('C[C@@H](CO)NC(=O)c1cc(-c2ccc(Cl)cc2)nn(-c2cnn(C)c2)c1=O', 'GI50', '22.9 µM'),
  ('O=C1CC/C(=C/COc2cc(=O)oc3ccccc23)O1', 'GI50', '4.37 µM'),
  ('COC(=O)C(C(=O)OC)C(Br)C(Br)C(Br)c1ccccc1 (configuration not stated)', 'GI50', '3.29 µM'),
  ('COc1ccc(C(=O)c2sc3nc(-c4cccs4)ccc3c2N)cc1OC', 'GI50', '5.07 µM'),
  ('O=C1/C(=C/c2ccc(O)cc2)COc2ccc(O)c(O)c21', 'GI50', '2.11 µM'),
  ('COc1c(N2CCN(CN3C(=O)C(=O)c4cc(Cl)ccc43)C(C)C2)c(F)cc2c(=O)c(C(=O)O)cn(C3CC3)c12 (configuration not stated)', 'GI50', '14.2 µM');

// GI50 (SW-620 colon) for `COc1ccc(-c2c3c(nc4n[nH]c(-c5ccc(Cl)cc5)c24)-c2ccccc2C(=O)C3=O)cc1` = 1.6 µM

// GI50 (SW-620 colon) for `CC(C)(C)OC(=O)NCc1cccc(N=C=S)c1` = 18.9 µM
